target: human GPCR142 (human, UniProt Q8TDU9 1-374); assay: cell-based or functional assay
Sequence (Q8TDU9 whole entry L329S): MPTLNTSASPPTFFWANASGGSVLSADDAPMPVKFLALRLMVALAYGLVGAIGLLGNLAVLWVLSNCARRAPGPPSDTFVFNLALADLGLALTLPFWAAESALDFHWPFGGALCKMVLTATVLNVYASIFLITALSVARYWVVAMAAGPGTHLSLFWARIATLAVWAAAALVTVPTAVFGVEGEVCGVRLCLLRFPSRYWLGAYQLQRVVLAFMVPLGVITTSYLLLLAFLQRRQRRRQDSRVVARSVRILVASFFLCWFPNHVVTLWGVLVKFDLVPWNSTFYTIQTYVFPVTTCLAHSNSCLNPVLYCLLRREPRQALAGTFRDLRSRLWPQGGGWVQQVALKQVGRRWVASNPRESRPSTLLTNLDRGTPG
Ends that are not written are not given here.
measurement label: EC50, inhibition of forskolin stimulated β-galactosidase expression (nM)
Quick reminder: number only, in nM, skip the unit.

In the examples that follow, each entry is paired with its recorded EC50, inhibition of forskolin stimulated β-galactosidase expression.
RAAPYGVRLCGREFIRAVIFTCGGSRWQDLQTLCCTDGCSMTDLSALC (ligand, disulfide (positions not given here); also: two chains (relaxin-3 B-chain, INSL5 A-chain), disulfide-linked, chain break not marked, Mature two-chain peptide: human relaxin-3 B-chain disulfide-linked to human INSL5 A-chain; FLAG tag removed; the tracer is kept under this same molecule; also called R3/5; I5/R3) [human relaxin-3/INSL5 chimeric polypeptide (R3/I5), mature]; 0.91
RAAPYGVRLCGREFIRAVIFTCGGSRWGYSEKCCLTGCTKEELSIAC (ligand, disulfide (positions not given here); also: two chains (relaxin-3 B-chain, INSL6 A-chain), disulfide-linked, chain break not marked, Mature two-chain peptide: human relaxin-3 B-chain disulfide-linked to human INSL6 A-chain; FLAG tag removed) [human relaxin-3/INSL6 chimeric polypeptide (R3/I6), mature]; 11.2

Consider the record given below.
Request: Which EC50, inhibition of forskolin stimulated β-galactosidase expression is listed for RAAPYGVRLCGREFIRAVIFTCGGSRWNPARYCCLSGCTQQDLLTLC (ligand, disulfide (positions not given here); also: two chains (relaxin-3 B-chain, INSL3 A-chain), disulfide-linked, chain break not marked, Mature two-chain peptide: human relaxin-3 B-chain disulfide-linked to human INSL3 A-chain; FLAG tag removed) [human relaxin-3/INSL3 chimeric polypeptide (R3/I3), mature] ?
Response: 2.9
